System: HCT-116
test_protocol: NCI tumour cell line growth inhibition, 48 h
Calls of active or inactive are those of the source. Rule as the data show it: active = GI50 up to about 1.1 µM and inactive = higher.
Classes used: true (1) = active, false (0) = inactive

compound	class
COc1cc(/C=N/c2ccc(Oc3ccc(Cl)cc3)c(Cl)c2)cc(OC)c1OC	false (0)
O=C1CC(c2ccccc2)Oc2ccccc21 (stereo not given)	false (0)
CC(CC(=O)CO[C@H]1[C@H](O)[C@@H](O)[C@@H](O)[C@@H]2NC(=O)c3c(cc4c(c3O)OCO4)[C@H]21)OC1OC(CO)C(O)C(O)C1O (stereo not given in full)	true (1)
O=S1OC2(c3ccccc3-c3ccccc32)c2ccccc21 (stereo not given)	false (0)
COc1ccc(N2CN3OC(=O)N(c4ccc(OC)cc4)[C@@]3(c3ccccc3)C2)cc1	false (0)
Clc1ccc2cccc3c2c1C1OC3c2ccccc21 (stereo not given)	false (0)
CCCCCCCCCCC/C=C(/C(=O)CCCO[Si](C)(C)C(C)(C)C)C(=O)OC	false (0)
Cc1ccc([S+]([O-])c2sccc2C=O)cc1 (stereo not given)	false (0)
Cc1ccc(S(=O)(=O)NC(CO)C(=O)O)cc1 (stereo not given)	false (0)
O=C1C(Cl)=C(Cl)C(=O)N1C1C2CC3CC(C2)CC1C3 (stereo not given)	false (0)
COC(=O)[C@]1(C)CCC[C@@]2(C)C1CC[C@]13C=C(C(C)C)[C@H](CC21)CC3(Cl)C#N (stereo not given in full)	false (0)
NNC(=S)N/N=C(\c1nc2ccc(Cl)cc2nc1O)C(O)c1cccc([N+](=O)[O-])c1 (stereo not given)	false (0)
COc1cc([C@@H]2c3cc4c(cc3[C@@H](Nc3ccc(C(=O)N[C@H]5CCc6cc(OC)c(OC)c(OC)c6-c6ccc(SC)c(=O)cc65)cc3)[C@H]3COC(=O)[C@H]23)OCO4)cc(OC)c1O	true (1)
O=C1NC(=S)NC(=O)C1=Cc1ccc2ccccc2n1	false (0)
CN(C)C(=O)N(CCCl)N=O	false (0)
O=C(c1cscc1CCc1ccccc1)c1cscc1CCc1ccccc1	false (0)
Cc1cc(N)c2cc(NC(=O)Nc3ccc4nc(C)cc(N)c4c3)ccc2n1	false (0)
COc1ncc(/C=C2\OC(=O)c3ccccc32)c(OC)n1	false (0)
CC/C(SC)=[N+](\C)[O-]	false (0)
COC(=O)Cc1c(-c2[nH]c3ccccc3c2CC(=O)OC)[nH]c2ccccc12	false (0)
Clc1cccc(N/N=N/c2ccc(-c3nc4ccccc4s3)cc2)c1	false (0)
CNc1ccc2ncccc2c1[N+](=O)[O-]	false (0)
COc1ccc(-n2c3c(c4cc(O)ccc42)C(=O)c2ccccc2C3=O)cc1	true (1)
CC(C)OP(=O)(OC(C)C)C1=NN(c2ccc([N+](=O)[O-])cc2)C(P(=O)(OC(C)C)OC(C)C)=NN1c1ccc([N+](=O)[O-])cc1	false (0)
O=C1CCCCN1C(=O)c1ccc([N+](=O)[O-])cc1	false (0)
S=c1nc(N2CCCCC2)c2cn[nH]c2[nH]1	false (0)
N=C(N)NCC1CCCCCCN1 (stereo not given)	false (0)
COC(=O)C1=Cc2cc(OC)c(OC)c(OC)c2[C@H](c2cc(OC)c(OC)c(OC)c2)C1C(=O)OC (stereo not given in full)	false (0)
O=c1c2cc(Br)ccc2oc2nc3n(c(=O)c12)CCCS3	false (0)
C/C(=C/CC[C@]1(CO)CC[C@]2(CO)[C@H](CC[C@@H]3[C@@]4(C)CC[C@H](OC5OCC(O)C(O)C5OC5OC(CO)C(O)C(O)C5O)C(C)(C)[C@@H]4CC[C@]32C)[C@H]1O)CO (stereo not given in full)	false (0)
CSC(=O)C[C@@]12O[C@@H]([C@@H](C)C3CCC4[C@@H]5C(O)CC6=CC(=O)C=C[C@]6(C)C5CC[C@@]43C)C[C@](C)(O1)C(C)(C)O2 (stereo not given in full)	false (0)
N=C(N)SCc1ccc2c(c1)Sc1ccccc1O2	false (0)
CCN(CC)CCOC(NC(C)=O)(c1ccccc1)c1ccccc1	false (0)
c1ccc(CN2CCC3(CC2)SSC2(CCN(Cc4ccccc4)CC2)S3)cc1	false (0)
CCN(CC)CCN(C)CCc1ccc(Br)cc1	false (0)
NC(=S)NC/C=C/Cl	false (0)
CN(C)CCNc1ccc([N+](=O)[O-])c2sc3ccccc3c(=O)c12	false (0)
CC(=O)Nc1ccc(C2C(C(=O)Nc3ccccc3)=C(C)NC(C)=C2C(=O)Nc2ccccc2)cc1	false (0)
CN1c2ccccc2N(C)C23N(C)c4ccccc4N(C)C12N(C)c1ccccc1N3C (stereo not given)	false (0)
COC(=O)c1c2c(cc3c1CC1(C3)Cc3cc4c(c(C(=O)OC)c3C1)CCC4)CCC2	false (0)
